# Target: c-kit (Homo sapiens)
# Construct: MO7e (human megakaryocytic leukemia cell line) which had been arrested for 20 hr; endogenous in cells; host or cells: MO7e human megakaryocytic leukemia cell line
# Procedure text: Inhibitory activity against c-kit autophosphorylation (MO7e cells, h-SCF)
# Type: cell-based
# Protocol conditions: Mo7e, figure in parentheses in −( ); at 1000 nM
Exercise: for every item that follows, state its recorded inhibition at 1 µM.
Give bare numbers, in %.

COc1cc2nccc(Oc3ccc(NC(=S)NC(=O)c4ccc(Cl)cc4)c(C)c3)c2cc1OC; 28
COc1cc2nccc(Oc3ccc(NC(=S)NC(=O)c4ccccc4F)c(C)c3)c2cc1OC; 18
COc1cc2nccc(Oc3ccc(NC(=S)NC(=O)c4cc(Cl)cc(Cl)c4)c(F)c3)c2cc1OC; 26

Provide inhibition at 1 µM for all items below, preserving their order.
1. CCOCCC(=O)NC(=S)Nc1ccc(Oc2ccnc3cc(OC)c(OC)cc23)c(Cl)c1
2. COc1cc2nccc(Oc3cc(C)c(NCCCOc4ccccc4)cc3C)c2cc1OC
3. COc1cc2nccc(Oc3ccc(NC(=S)NC(=O)c4ccccc4)c(F)c3)c2cc1OC
4. CCCCCCCCCCCCCCCCCCOC(=O)Nc1ccc(Oc2ccnc3cc(OC)c(OC)cc23)cc1

Response:
1. 0
2. 27
3. 34
4. 18

Simply: COc1cc2nccc(Oc3ccc(NC(=S)NC(=O)c4ccc(CN5CCOCC5)cc4)cc3)c2cc1OC , c-kit (Homo sapiens), inhibition at 1 µM = 13

----------
# Target: c-kit (Homo sapiens, UniProt P10721)
# Construct: MO7e (human megakaryocytic leukemia cell line) which had been arrested for 20 hr; endogenous in cells; host or cells: MO7e human megakaryocytic leukemia cell line
# Sequence (P10721 26-976): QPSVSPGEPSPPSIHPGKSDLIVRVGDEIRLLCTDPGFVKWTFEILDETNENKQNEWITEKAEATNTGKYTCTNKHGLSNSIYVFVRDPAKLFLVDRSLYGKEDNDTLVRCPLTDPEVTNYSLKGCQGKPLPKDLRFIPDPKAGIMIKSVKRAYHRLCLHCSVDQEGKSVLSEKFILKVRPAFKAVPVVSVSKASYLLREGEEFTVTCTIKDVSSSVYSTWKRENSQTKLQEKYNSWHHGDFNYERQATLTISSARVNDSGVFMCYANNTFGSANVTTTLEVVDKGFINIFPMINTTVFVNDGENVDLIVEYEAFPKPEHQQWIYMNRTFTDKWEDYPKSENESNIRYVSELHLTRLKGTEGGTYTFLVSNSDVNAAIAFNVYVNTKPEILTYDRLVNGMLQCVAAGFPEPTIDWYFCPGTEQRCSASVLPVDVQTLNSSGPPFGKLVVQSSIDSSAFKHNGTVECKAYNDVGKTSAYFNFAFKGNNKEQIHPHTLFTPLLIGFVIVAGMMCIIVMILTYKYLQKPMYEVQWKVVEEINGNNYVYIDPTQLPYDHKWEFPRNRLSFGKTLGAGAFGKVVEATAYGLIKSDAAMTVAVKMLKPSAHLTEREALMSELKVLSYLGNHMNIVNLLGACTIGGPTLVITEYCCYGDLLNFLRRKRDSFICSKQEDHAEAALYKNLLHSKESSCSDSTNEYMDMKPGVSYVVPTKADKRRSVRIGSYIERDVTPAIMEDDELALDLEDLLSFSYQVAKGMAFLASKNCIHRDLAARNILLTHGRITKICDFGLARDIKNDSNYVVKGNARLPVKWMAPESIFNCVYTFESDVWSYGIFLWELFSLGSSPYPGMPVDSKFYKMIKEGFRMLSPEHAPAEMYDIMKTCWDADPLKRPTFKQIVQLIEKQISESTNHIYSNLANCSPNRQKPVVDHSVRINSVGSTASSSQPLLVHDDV
# Procedure text: Inhibitory activity against c-kit autophosphorylation (MO7e cells, h-SCF)
# Format: cell-based
# Protocol conditions: MO7e cells, h-SCF stimulation; read-out: c-kit IC50
Field: log10 of IC50. Provide a value for each of the compounds that follow.
Record value = log10 of IC50 given in nM.

Guide cases for log10 of IC50, answers given:
COc1cc2nccc(Oc3ccc(NC(=S)NC(=O)c4ccc(CCl)cc4)cc3)c2cc1OC; 2.81
COc1cc2ncnc(Oc3ccc(SCCOc4ccccc4F)cc3)c2cc1OC; 2.88
COc1cc2ncnc(Oc3ccc(NCCOc4ccccc4)cc3)c2cc1OC; 1.84
CCCCC(C)C(=O)NC(=S)Nc1ccc(Oc2ccnc3cc(OC)c(OC)cc23)c(Cl)c1 (centres unmarked); 2.58

In the following, a different compound is considered.
For this compound ( COc1cc2ncnc(Oc3ccc(N)c(N4CCOCC4)c3)c2cc1OC ), measured log10 of IC50 is 2.28

----------
# Target: c-kit (Homo sapiens, UniProt P10721)
# Construct: MO7e (human megakaryocytic leukemia cell line) which had been arrested for 20 hr; endogenous in cells; host or cells: MO7e human megakaryocytic leukemia cell line
# Procedure text: Inhibitory activity against c-kit autophosphorylation (MO7e cells, h-SCF)
# Assay type: cell-based
# Protocol conditions: MO7e cells, h-SCF 50 ng/ml; read-out: c-kit IC50
Kindly supply the reported log10 of IC50 values for the records listed here.
# values: log10(IC50), units nM

Past entries and their recorded results:
COc1cc2nccc(Oc3ccc(NC(=O)OCCC4CCCCC4)c(C)c3C)c2cc1OC; 2.40
COc1cc2ncnc(Oc3ccc(NC(=O)OCc4ccc(F)cc4)c(Cl)c3)c2cc1OC; 2.59
COc1cc2nccc(Oc3ccc(NC(=O)Oc4c(OC)cccc4OC)c(C)c3C)c2cc1OC; 1.68
COc1ccc(OCCCOC(=O)Nc2ccc(Oc3ccnc4cc(OC)c(OC)cc34)cc2)cc1; 1.86
COc1cc2nccc(Oc3ccc(NC(=O)OCC4CC4)cc3)c2cc1OC; 1.65
COc1cc2ncnc(Oc3ccc(NC(=O)OCC4CCCCC4)cc3)c2cc1OC; 2.03
CCCCc1ccc(OC(=O)Nc2cc(C)c(Oc3ccnc4cc(OC)c(OC)cc34)cc2C)cc1; 2.47
COc1cc2nccc(Oc3cc(C)c(NC(=O)OCCCSc4cc(C)ccc4C)cc3C)c2cc1OC; 1.92
COc1cc2nccc(Oc3ccc(NC(=O)Oc4ccc(C(C)(C)C)cc4)c(C)c3C)c2cc1OC; 2.01
COc1cc2nccc(Oc3ccc(NC(=O)OCCSc4ccc(C)cc4)cc3)c2cc1OC; 2.37

Parameter requested: log10 of IC50. Apply to each item below.
1. COc1cc2ncnc(Oc3ccc(NC(=O)OCC4CCCC4)cc3)c2cc1OC
2. COc1cc2ncnc(Oc3ccc(NC(=O)OCCCc4ccccc4)c(Cl)c3)c2cc1OC
3. COc1cc2nccc(Oc3cc(C)c(NC(=O)Oc4ccccc4C)cc3C)c2cc1OC
4. CCOc1ccccc1C(C)OC(=O)Nc1cc(C)c(Oc2ccnc3cc(OC)c(OC)cc23)cc1C (stereo not drawn)
5. COc1cc2nccc(Oc3cc(C)c(NC(=O)OCCN4CCCCC4)cc3C)c2cc1OC
6. CCCCCCOC(=O)Nc1ccc(Oc2ncnc3cc(OC)c(OC)cc23)cc1Cl
7. COc1cc2nccc(Oc3ccc(NC(=O)Oc4ccc(-c5ccccc5)cc4)cc3)c2cc1OC
8. COc1cc2nccc(Oc3ccc(NC(=O)OCCN4CCCCC4)c(C)c3C)c2cc1OC

Response:
1: 1.89; 2: 2.80; 3: 2.52; 4: 2.86; 5: 2.60; 6: 2.04; 7: 2.04; 8: 2.34

Go through the items and report each one's log10 of IC50.
1. COc1cc2nccc(Oc3cc(C)c(NC(=O)OCCCc4ccccc4)cc3C)c2cc1OC
2. CCCC(CC)OC(=O)Nc1ccc(Oc2ccnc3cc(OC)c(OC)cc23)c(C)c1C (stereo not drawn)
3. COc1cc2nccc(Oc3ccc(NC(=O)OCC4CCCCC4)cc3)c2cc1OC
4. COc1cc2ncnc(Oc3ccc(NC(=O)OC4CCCC4)c(C)c3C)c2cc1OC
5. CCC(CC)OC(=O)Nc1ccc(Oc2ccnc3cc(OC)c(OC)cc23)cc1
6. COc1cc2ncnc(Oc3ccc(NC(=O)OCCc4cccc(C(F)(F)F)c4)cc3)c2cc1OC
7. COc1cc2nccc(Oc3cc(C)c(NC(=O)OC(C)c4ccccc4Br)cc3C)c2cc1OC (stereo not drawn)
8. COc1cccc(OC(=O)Nc2cc(C)c(Oc3ccnc4cc(OC)c(OC)cc34)cc2C)c1

Response:
2.18
1.72
2.08
1.95
2.56
2.21
2.78
2.45

Please give log10 of IC50 for each item listed below.
1. COc1cc2ncnc(Oc3ccc(NC(=O)OC(C)c4cccc(Br)c4)cc3)c2cc1OC (stereo not drawn)
2. COc1cc2nccc(Oc3ccc(NC(=O)OCCCc4ccccc4)c(C)c3C)c2cc1OC
3. COc1cc2nccc(Oc3ccc(NC(=O)OCCSc4ccc(C)cc4)c(C)c3C)c2cc1OC
4. COc1cc2nccc(Oc3cc(C)c(NC(=O)OC(C)C)cc3C)c2cc1OC
5. COc1cccc(OCCCOC(=O)Nc2ccc(Oc3ccnc4cc(OC)c(OC)cc34)c(C)c2C)c1 [Example 162]
6. COc1cc2nccc(Oc3ccc(NC(=O)Oc4ccccc4)c(C)c3C)c2cc1OC

Response:
1. 2.70
2. 1.96
3. 1.87
4. 2.36
5. 2.21
6. 1.59
